- assay-setup: 298.15 K; 101.33 kPa; Liquid; Pycnometric method
± gives the expanded uncertainty stated by the source.
This listing pairs compounds with measured mass density.
recorded-metric: mass density

{"chem-smiles": "CCCO", "result": "799.6 ± 0.61 kg/m3"}
{"chem-smiles": "CC(C)CC(C)(C)C", "result": "687.9 ± 0.56 kg/m3"}
{"chem-smiles": "CCCCCO", "result": "810.8 ± 0.66 kg/m3"}
{"chem-smiles": "CCCCO", "result": "805.8 ± 0.62 kg/m3"}

* * *

Listing of recorded refractive index by entry.
- method-description: refractive index (Na D-line) (dimensionless)
- assay-setup: 298.15 K; 101.33 kPa; Liquid; Standard Abbe refractometry
recorded-metric: refractive index

{"chem-smiles": "CC(C)CC(C)(C)C", "result": 1.3889}
{"chem-smiles": "CCCCO", "result": 1.3974}
{"chem-smiles": "CCCCCO", "result": 1.4078}
{"chem-smiles": "CCCO", "result": 1.3832}
